Please respond with reported viability at 28.5 h, 10 µM for every item in the list.
Experiment: in vitro
Conditions: human, hela cells, % viability
Numbers only, in %.

Solved entries (count: 4):
> print(dat)
                                   molecule                 result.type  measured.number
1     c1csc(-c2nnc(C3CCN(Cc4ccsc4)CC3)o2)c1  viability at 28.5 h, 10 µM              102
2  Cc1cccc(N2CCN(CC(=O)Nc3cc(Cl)ccc3C#N)CC2)c1  viability at 28.5 h, 10 µM              109
3  COC(=O)c1c(NC(=O)C(Cc2ccccc2)N2C(=O)c3ccccc3C2=O)sc2c1CCC2 (stereo not shown)  viability at 28.5 h, 10 µM             96.1
4  CCNS(=O)(=O)c1ccc(NC(=O)c2cc(-c3ccccn3)nc3c(C)c(C)ccc23)cc1  viability at 28.5 h, 10 µM             97.3

State recorded viability at 28.5 h, 10 µM for all listed molecules.
1. Cc1cc(C)n(-c2nc3ccccc3nc2N2CCN(S(=O)(=O)c3ccc(F)c(C)c3)CC2)n1
2. Cc1ncccc1COC(=O)Nc1cnc2ccccc2c1
3. C=CCN1CCC(C(=O)NC(=O)NCC2COc3ccccc3O2)CC1 (stereo not shown)
4. O=C(NCc1ccccn1)C1CCC(Cn2c(=S)[nH]c3ccccc3c2=O)CC1 (stereo not shown)

result:
1. 91.1
2. 95.9
3. 84.2
4. 95.6

Hi team, please reply with viability at 28.5 h, 10 µM for each item in this list.
1. Cc1nn2c(O)c(CCO)c(C(=O)O)nc2c1-c1ccc(Cl)cc1
2. COc1ccc(NS(=O)(=O)c2cccs2)c(OC)c1
3. Cn1ncc(Cl)c1C1CCCCCN1C(=O)c1cc(C2CC2)on1 (stereo not shown)
4. Cc1cccc(N2CCN(CC(=O)Nc3ccc(S(N)(=O)=O)cc3)CC2)c1C
5. O=C(N/N=C/c1ccc([N+](=O)[O-])cc1)c1ccccc1Cl

result:
108
93
102
96.8
88.7

Parameter requested: viability at 28.5 h, 10 µM. Apply to each item below.
1. O=C(NCc1nnc(-c2cccs2)o1)C1(c2ccccc2)CC1
2. Clc1ccccc1CSc1nnc2c(n1)OC=Nc1ccccc1-2
3. Cn1c(N2CC[C@H](O)C2)nc2cc(C(=O)NCCc3cscn3)ccc21
4. CCN(CC)CCn1c(=N)n(CC(=O)c2ccc(Cl)c(Cl)c2)c2ccccc21 [CBK263455B]
5. COC(=O)CCCN1CCCC12CCc1[nH]c3ccccc3c1C2 (stereo not shown) [CBK107798T]
6. CCn1cc(C(=O)NN)c(=O)c2cc(F)c(NN)cc21

result:
1: 96.2; 2: 99.1; 3: 88.5; 4: 91.5; 5: 95.6; 6: 79.1
